test system: SF-295 CNS; test: NCI tumour cell line growth inhibition, 48 h
// reported TGI for each item listed
Number only, in µM; omit the unit.

I'd like to know its TGI. The molecule in question is `CCCCOC(=O)c1ccc(N)cc1`
89.1

I'd like to know its TGI. The molecule in question is `Cc1cccc(-n2c(N)c(-c3nc4ccccc4[nH]3)sc2=S)c1`
68.1

I'd like to know its TGI. The molecule in question is `O=S(=O)(CCN1CCOCC1)Nc1cc(-c2ccc3ncnc(Nc4ccc(F)c(Cl)c4)c3c2)cnc1Cl`
4.29

I'd like to know its TGI. The molecule in question is `Nc1c(C(=O)Nc2ccccc2)sc2nc3c(cc12)CCCCC3`
4.04

# credit: PubChem BioAssay (NCI)
